# target entity: T1, FZD9 CRD (Homo sapiens, UniProt O00144)
# T1 construct: G35-A161; GPI anchor signal (C); expressed in transfected cells; host or cells: CHO cells, lentiviral pLenti-puro
# T1 sequence (O00144 35-161): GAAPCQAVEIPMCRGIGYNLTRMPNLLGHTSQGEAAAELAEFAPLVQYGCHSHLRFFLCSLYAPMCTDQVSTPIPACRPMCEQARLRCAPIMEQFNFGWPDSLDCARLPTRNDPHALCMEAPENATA
# measurement protocol: Immunofluorescence of anti-FZD5 Fab binding to CHO cells overexpressing Frizzled CRD
# Parameters: key: −: no binding; +: very weak binder; ++: weak binder; +++: good binder; ++++: very good binder
readout: Immunofluorescence binding, Frizzled CRD overexpressed on CHO cells: FZD9

Check out these entries, answers already filled in.
>>> reported("Fab-2905: anti-FZD5 Fab with antibody variable region Fv-2905; CDR SEQ ID NOs: 35, 36, 44, 83, 120, 157 (antibody, V domains shown) VH: EVQLVESGGGLVQPGGSLRLSCAASGFNLSYYYMHWVRQAPGKGLEWVASIYSSYSYTSYADSVKGRFTISADTSKNTAYLQMNSLRAEDTAVYYCARSGYALDYWGQGTLVTVSS VL: DIQMTQSPSSLSASVGDRVTITCRASQSVSSAVAWYQQKPGKAPKLLIYSASSLYSGVPSRFSGSRSGTDFTLTISSLQPEDFATYYCQQSSWYYGYPFTFGQGTKVEIK")
"−"
>>> reported("Fab-2929: anti-FZD5 Fab with antibody variable region Fv-2929; CDR SEQ ID NOs: 35, 36, 68, 106, 144, 162 (antibody, V domains shown) VH: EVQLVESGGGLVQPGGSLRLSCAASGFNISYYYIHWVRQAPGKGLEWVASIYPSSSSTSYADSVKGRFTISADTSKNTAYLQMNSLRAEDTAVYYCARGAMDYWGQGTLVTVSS VL: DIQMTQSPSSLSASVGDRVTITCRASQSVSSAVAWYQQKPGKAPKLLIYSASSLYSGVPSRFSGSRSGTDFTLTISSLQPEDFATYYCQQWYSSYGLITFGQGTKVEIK")
"−"
>>> reported("Fab-2927: anti-FZD5 Fab with antibody variable region Fv-2927; CDR SEQ ID NOs: 35, 36, 66, 104, 142, 174 (antibody, V domains shown) VH: EVQLVESGGGLVQPGGSLRLSCAASGFNIYYSSMHWVRQAPGKGLEWVASIYPSYGYTSYADSVKGRFTISADTSKNTAYLQMNSLRAEDTAVYYCARYGYYGFDYWGQGTLVTVSS VL: DIQMTQSPSSLSASVGDRVTITCRASQSVSSAVAWYQQKPGKAPKLLIYSASSLYSGVPSRFSGSRSGTDFTLTISSLQPEDFATYYCQQWGSHGYLITFGQGTKVEIK")
"−"
>>> reported("Fab-2926: anti-FZD5 Fab with antibody variable region Fv-2926; CDR SEQ ID NOs: 35, 36, 65, 103, 141, 173 (antibody, V domains shown) VH: EVQLVESGGGLVQPGGSLRLSCAASGFNIYSSYMHWVRQAPGKGLEWVASIYPSSSSTSYADSVKGRFTISADTSKNTAYLQMNSLRAEDTAVYYCARGGLDYWGQGTLVTVSS VL: DIQMTQSPSSLSASVGDRVTITCRASQSVSSAVAWYQQKPGKAPKLLIYSASSLYSGVPSRFSGSRSGTDFTLTISSLQPEDFATYYCQQWYHGGSLFTFGQGTKVEIK")
"−"
>>> reported("Fab-2913: anti-FZD5 Fab with antibody variable region Fv-2913; CDR SEQ ID NOs: 35, 36, 52, 91, 128, 165 (antibody, V domains shown) VH: EVQLVESGGGLVQPGGSLRLSCAASGFNISYSSIHWVRQAPGKGLEWVASIYPYSSSTSYADSVKGRFTISADTSKNTAYLQMNSLRAEDTAVYYCARYGYYGLDYWGQGTLVTVSS VL: DIQMTQSPSSLSASVGDRVTITCRASQSVSSAVAWYQQKPGKAPKLLIYSASSLYSGVPSRFSGSRSGTDFTLTISSLQPEDFATYYCQQWGVSHYLFTFGQGTKVEIK")
"−"
>>> reported("Fab-2922: anti-FZD5 Fab with antibody variable region Fv-2922; CDR SEQ ID NOs: 35, 36, 61, 99, 137, 171 (antibody, V domains shown) VH: EVQLVESGGGLVQPGGSLRLSCAASGFNIYSSYMHWVRQAPGKGLEWVASISPYSGYTSYADSVKGRFTISADTSKNTAYLQMNSLRAEDTAVYYCARTVRGSKKPYFSGWAMDYWGQGTLVTVSS VL: DIQMTQSPSSLSASVGDRVTITCRASQSVSSAVAWYQQKPGKAPKLLIYSASSLYSGVPSRFSGSRSGTDFTLTISSLQPEDFATYYCQQSFVYPYLITFGQGTKVEIK")
"−"

Ask: Bench note: what Immunofluorescence binding, Frizzled CRD overexpressed on CHO cells: FZD9 did Fab-2910: anti-FZD5 Fab with antibody variable region Fv-2910; CDR SEQ ID NOs: 35, 36, 49, 88, 125, 162 (antibody, V domains shown) VH: EVQLVESGGGLVQPGGSLRLSCAASGFNISYSYMHWVRQAPGKGLEWVASIYSSSSSTSYADSVKGRFTISADTSKNTAYLQMNSLRAEDTAVYYCARGAMDYWGQGTLVTVSS VL: DIQMTQSPSSLSASVGDRVTITCRASQSVSSAVAWYQQKPGKAPKLLIYSASSLYSGVPSRFSGSRSGTDFTLTISSLQPEDFATYYCQQWYGSHLITFGQGTKVEIK show?
Reply: −

Ask: Item Fab-2900: anti-FZD5 Fab with antibody variable region Fv-2900; CDR SEQ ID NOs: 35, 36, 39, 78, 115, 153 (antibody, V domains shown) VH: EVQLVESGGGLVQPGGSLRLSCAASGFNLSSYYIHWVRQAPGKGLEWVASISSSSSSTSYADSVKGRFTISADTSKNTAYLQMNSLRAEDTAVYYCARGALDYWGQGTLVTVSS VL: DIQMTQSPSSLSASVGDRVTITCRASQSVSSAVAWYQQKPGKAPKLLIYSASSLYSGVPSRFSGSRSGTDFTLTISSLQPEDFATYYCQQWYSGSSLFTFGQGTKVEIK has what recorded Immunofluorescence binding, Frizzled CRD overexpressed on CHO cells: FZD9?
Reply: −
